# Test system: SK-MEL-5 melanoma
# PROCEDURE_DETAILS: NCI tumour cell line growth inhibition, 48 h
PROPERTY_NAME: TGI

Query :: Query: TGI; subject: O=c1[nH]c(=O)n(C2CC(O)C(CO)O2)cc1CO (stereo not drawn)
Result :: > 100 µM

Query :: Need TGI, item CS(=O)(=O)CCCn1c(=O)c(Oc2ccc(F)cc2F)cc2cnc(NC3CCOCC3)nc21
Result :: > 25 µM

Query :: Reported TGI, compound COc1ccc(-c2cc(-c3ccccc3)c(C#N)c(=O)n2C2OC(CO)C(O)C(O)C2O)cc1 (stereo not drawn) : ____
Result :: > 100 µM
